Source listed as paper PMC11661628.

Give ED50 for every item shown.
# System: J774.1 cells
# assay_details: Quantitation of oxLDL endocytosis (DiI-oxLDL spectrofluorometry)
# Type: cell-based, murine
# measurement_context: oxLDL internalization, DiI-oxLDL 10 μg mL^-1, 24 h; NE non-effective
Only the number, expressed in µM, is required.

Query block: Recorded ED50 for "C=C(C)[C@@H]1CCC(C)=C[C@H]1c1c(O)cc(CCCCC)cc1O" with J774.1 cells, please?
Result block: 25

Query block: Proceed to CCCCCc1cc2c(c(O)c1C(=O)O)C1C=C(C)CCC1C(C)(C)O2 (stereo not shown) [THCA, Δ^9-tetrahydrocannabinolic acid]
Result block: 12

Query block: Proceed to CCCCCc1cc(O)c2c(c1)OC(C)(C)[C@@H]1CCC(C)=C[C@@H]21 [THC, Δ^9-tetrahydrocannabinol]
Result block: 11

Query block: Proceed to "C=C(C)[C@@H]1CCC(C)=C[C@H]1c1c(O)cc(CCCCC)c(C(=O)O)c1O"
Result block: 18
